The reported measurements were obtained from patent US12404295B2.

The following compounds each carry a recorded pIC50 for human Gal-1 (hGal-1) (Homo sapiens (Human), UniProt P09382).
The scale used: pIC50 is minus the common logarithm of the concentration in molar units.

Consider the worked cases shown below.
| compound | resultNumber |
| --- | --- |
| CO[C@@H]1[C@@H](n2cc(-c3cc(F)c(F)c(F)c3)nn2)[C@@H](O)[C@@H](CO)O[C@H]1S[C@H](c1nocc1C)C1(O)CCS(=O)(=O)CC1 [Example 2.66.120R.I.] | 6.24 |
| CO[C@@H]1[C@@H](n2cc(-c3cc(F)c(F)c(F)c3)nn2)[C@@H](O)[C@@H](CO)O[C@H]1S[C@H](c1ncccc1C(F)(F)F)C1(O)CCCCC1 [Example 2.39.125R.I.] | 6.34 |
| Cc1c(F)cc(-c2cn([C@H]3[C@@H](O)[C@@H](CO)O[C@@H](S[C@@H](c4ccccc4C(F)(F)F)C(C)(C)O)[C@@H]3O)nn2)cc1F [Example 3.31.112S.] | 4.27 |
| CC(C)(O)[C@H](S[C@@H]1O[C@H](CO)[C@H](O)[C@H](n2cc(-c3cc(F)c(F)c(F)c3)nn2)[C@H]1O)c1ccccc1-c1ccccc1 [Example 2.31.110R.] | 6.55 |

In the following, a different compound is considered.
Fill in reported pIC50 for this entry: Cc1ccccc1[C@@H](S[C@@H]1O[C@H](CO)[C@H](O)[C@H](n2cc(-c3cc(F)c(F)c(F)c3)nn2)[C@H]1O)C1(O)CCCCC1 [Example 2.39.102R.]
5.94

###

systemUnderTest: human Gal-1 (hGal-1) (Homo sapiens (Human), UniProt P09382)
Sequence (P09382 whole entry): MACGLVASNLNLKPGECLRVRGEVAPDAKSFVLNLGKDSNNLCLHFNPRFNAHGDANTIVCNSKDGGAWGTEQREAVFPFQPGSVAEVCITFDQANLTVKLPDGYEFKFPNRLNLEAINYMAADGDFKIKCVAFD
Listing of recorded IC50 by entry.
Field format: number, assumed µM, no unit text.

| compound | IC50 (µM) |
| --- | --- |
| OC[C@H]1O[C@@H](S[C@@H](c2ccccc2C(F)(F)F)C2(O)CC(F)(F)C2)[C@H](O)[C@@H](n2cc(-c3cc(F)c(F)c(F)c3)nn2)[C@H]1O [Example 2.33.112S.] | 21.7 |
| CO[C@@H]1[C@@H](n2cc(-c3cc(F)c(F)c(F)c3)nn2)[C@@H](O)[C@@H](CO)O[C@H]1S[C@@H](c1nccc(Cl)c1Cl)C1(O)CCC(F)(F)CC1 (single isomer, unassigned) [Example 2.44.143R.I.] | 0.86 |
| CC(C)(O)C(S[C@@H]1O[C@H](CO)[C@H](O)[C@H](n2cc(-c3cc(F)c(F)c(F)c3)nn2)[C@H]1O)c1cccc2ccccc12 (some centres unmarked) [Example 2.31.115.] | 1.39 |

Fill in reported IC50 for this entry: OC[C@H]1O[C@@H](S[C@H](c2nccnc2Cl)C2(O)CCC(F)(F)CC2)[C@H](O)[C@@H](n2cc(-c3cc(F)c(F)c(F)c3)nn2)[C@H]1O [Example 2.44.133R.]
0.16

###

systemUnderTest: UniProt:P09382
Binary label based on IC50 with cut-off 7 µM: below gives 1 (yes), not below gives 0 (no).

| molecule | classLabel |
| --- | --- |
| CCc1cccnc1[C@H](S[C@@H]1O[C@H](CO)[C@H](O)[C@H](n2cc(-c3cc(F)c(F)c(F)c3)nn2)[C@H]1OC)C1(O)CCC(F)(F)CC1 [Example 2.44.142S.I.] | 0 (no) |

Regarding Cc1ccccc1[C@@H](S[C@@H]1O[C@H](CO)[C@H](O)[C@H](n2cc(-c3cc(F)c(F)c(F)c3)nn2)[C@H]1O)C1(O)CC(C)C1 (some centres unmarked) [Example 2.36.102R.] , kindly confirm whether its IC50 is beneath 7 µM.
1 (yes)

Regarding CO[C@@H]1[C@@H](n2cc(-c3cc(F)c(F)c(F)c3)nn2)[C@@H](O)[C@@H](CO)O[C@H]1S[C@H](c1nccnc1C)C1(O)CCC(F)(F)CC1 [Example 2.44.129R.I.] , kindly confirm whether its IC50 is beneath 7 µM.
1 (yes)
